Each item that follows carries a reported inhibition.
target: Dual specificity protein phosphatase 3 (Homo sapiens); experiment: VHR1 phosphatase inhibitors, primary screen, biochemical, absorbance, uHTS (AID 1654); conditions: recombinant VHR phosphatase, pNPP absorbance, at 13.3 µM, stronger effect = higher value
The campaign covered roughly 290,000 compounds. About 1,500 (0.52%) were called active. Shown is part of a subset that was picked to be rich in actives.
Reply numerically in %, unit not repeated.

CCn1c(=S)sc2c(=O)n(CC(=O)Nc3ccc(OC)cc3)c(C)nc21    57.9
COc1ccc(N(CC(=O)N2CCOCC2)S(=O)(=O)c2ccccc2)cc1Cl    18.1
C=CCN1C(=O)C2(OCCCO2)c2cccc(Cl)c21    19.2

Summary for this molecule, COc1cccc(NC(=O)C2C(c3ccccc3)C2(Cl)Cl)c1 (stereo not drawn) : inhibition is -7.8

Summary for this molecule, COCC(=O)Nc1c(C(=O)N2CCCC2)oc2ccccc12 : inhibition is 1

Summary for this molecule, COCCNC(=O)c1ccc2c(c1)ncn2-c1ccc(C)c(Cl)c1 : inhibition is 5.8

Summary for this molecule, O=C(c1ccc(Cl)cc1)n1cnc2ccccc21 : inhibition is 4.1

Summary for this molecule, COc1ccc(NC(=O)C2CCCN(S(=O)(=O)c3cccc4cccnc34)C2)cc1OC (stereo not drawn) : inhibition is 23.6

Summary for this molecule, COCCNC(=O)C1CCN(C(=O)C2CC(=O)N(c3ccc(C)cc3)C2)CC1 (stereo not drawn) : inhibition is 50

Summary for this molecule, CC(=O)Nc1ccc(NC(=O)CSc2nnnn2-c2ccccc2F)cc1 : inhibition is 30

Summary for this molecule, Cc1ccccc1NS(=O)(=O)CCCCC(Cl)(Cl)Cl : inhibition is 15.4

Summary for this molecule, COc1cc2c(cc1OC)CN(C(=O)c1cc(S(=O)(=O)N3CCCCC3)ccc1Cl)CC2 : inhibition is 8.6

Summary for this molecule, Cc1cc(C(=O)N2CCN(c3ccccn3)CC2)c(C)o1 : inhibition is -2.1

Summary for this molecule, Cc1ccc(-c2nc(CS(=O)(=O)CC(=O)NCc3ccc4c(c3)OCO4)c(C)o2)cc1 : inhibition is 9.7

Summary for this molecule, COCCNC(=O)c1snc2ccc(Cl)cc12 : inhibition is 50

Summary for this molecule, CCOc1cc(/C=N/NC(=O)OC)ccc1OCCSc1ccc(Cl)cc1 : inhibition is -3.8

Summary for this molecule, Cc1ccc(NC(=S)N(CCN2CCCCC2)Cc2ccco2)cc1C : inhibition is 5.9

Summary for this molecule, COc1ccc(OC)c(NC(=O)C2CCCN2S(=O)(=O)c2cccc3nsnc23)c1 (stereo not drawn) : inhibition is 19

Summary for this molecule, COc1cccc(CNCc2ccc3c(c2)OCO3)c1 : inhibition is 3.6

Summary for this molecule, CC(=O)c1cccc(NC(=O)C2CCCN2S(=O)(=O)c2cccc3nsnc23)c1 (stereo not drawn) : inhibition is 54.2

Summary for this molecule, O=C(COC(=O)C1CC2C=CC1C2)Nc1ccccc1 (stereo not drawn) : inhibition is -9.6

Summary for this molecule, COc1cc(C(=S)NCc2ccccc2)cc(Br)c1O : inhibition is 25.9

---

target: Dual specificity protein phosphatase 3 (Homo sapiens) (UniProt P51452); experiment: VHR1 phosphatase inhibitors, primary screen, biochemical, absorbance, uHTS (AID 1654); conditions: recombinant VHR phosphatase, pNPP absorbance, at 13.3 µM, stronger effect = higher value
Sequence (P51452 whole entry, looked up): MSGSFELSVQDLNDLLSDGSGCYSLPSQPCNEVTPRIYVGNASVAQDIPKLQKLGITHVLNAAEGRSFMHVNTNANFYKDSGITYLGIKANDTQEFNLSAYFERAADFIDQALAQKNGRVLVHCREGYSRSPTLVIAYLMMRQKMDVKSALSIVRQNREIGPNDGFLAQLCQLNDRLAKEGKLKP
Screen size: about 290,000 compounds; about 1,500 (0.52%) were called active. The sample as a whole holds a higher share of actives than the screen did.
Endpoint: inhibition (%)
Reply numerically in %, unit not repeated.

In the examples that follow, each entry is paired with its recorded inhibition.
CC1CCC2(CC1)NC(=O)N(CC(=O)c1ccc3c(c1)OCO3)C2=O (stereo not given)    5.4
Cc1ccc2c(c1)N(CC(=O)N1CCCC(C)C1)C(=O)CO2 (stereo not given)    7.4
COc1ccc2oc(=O)cc(CN3CCOCC3)c2c1    -2.3
Cc1ccc(S(=O)(=O)Nc2nc(C)cc(-n3nc(C)cc3C)n2)cc1    28.3
Cc1cccc2nc(CNc3ccc(F)cc3)cn12    -14.9

Summary for this molecule, Nc1nc(SCC(=O)Nc2ccc(Cl)cc2C(F)(F)F)n[nH]1 : inhibition is 2.5

Summary for this molecule, CC(=O)c1ccc(OC(=O)N2CCOCC2)cc1 : inhibition is 1.7

Summary for this molecule, CC(=O)c1ccc(NC(=O)CCc2nnc3ccc(NCc4ccco4)nn23)cc1 : inhibition is -9.1

Summary for this molecule, COC(=O)NNC1=CC(=O)CC(C)(C)C1 : inhibition is 1.2

Summary for this molecule, N#Cc1ccccc1CN1C(=O)S/C(=C/c2cccn2-c2cccc(C(=O)O)c2)C1=O : inhibition is 50.3

Summary for this molecule, O=C(O)C1CCC(CNS(=O)(=O)c2ccc(Br)cc2)CC1 (stereo not given) : inhibition is 13.3

---

target: Dual specificity protein phosphatase 3 (Homo sapiens) (UniProt P51452); experiment: VHR1 phosphatase inhibitors, primary screen, biochemical, absorbance, uHTS (AID 1654); conditions: recombinant VHR phosphatase, pNPP absorbance, at 13.3 µM, stronger effect = higher value
Out of some 290,000 compounds screened, about 1,500 (0.52%) were called active. Many of the other results were omitted from the sample, so actives are more common in it than they were.
Each item that follows carries a reported inhibition.
Reply numerically in %, unit not repeated.

In the examples that follow, each entry is paired with its recorded inhibition.
Cc1cccc(N2CCN(C(C)C(=O)N3CCc4ccccc43)CC2)c1C (stereo not drawn)    52.9
COc1ccccc1OCCOc1ccc(/C=C2\C(=N)N3N=C(C)SC3=NC2=O)cc1    59.3
CN(C)CCN(C(=O)C1=COCCO1)c1nc2ccc(Cl)cc2s1    17.5
CC(C)c1ccc2c(c1)c(SC(C)(C)C)c(CC(C)(C)C(=O)O)n2Cc1ccc(Cl)cc1    -1.6
Cn1nnc(NC(=S)NC(=O)c2ccccc2)n1    8.5

Summary for this compound, O=C(C(NS(=O)(=O)c1cccc2nsnc12)c1ccccc1)N1CCN(c2ccccc2)CC1 (stereo not drawn) : inhibition is -12.8

Summary for this compound, CCCCCn1c(=O)[nH]c2cc(C(=O)NCCCN3CCCCC3C)ccc2c1=O (stereo not drawn) : inhibition is 22.4

Summary for this compound, COc1cccc(NC(=S)NCCCN2CCOCC2)c1 : inhibition is 16.2

---

target: Dual specificity protein phosphatase 3 (Homo sapiens) (UniProt P51452); assay: VHR1 phosphatase inhibitors, primary screen, biochemical, absorbance, uHTS (AID 1654); conditions: recombinant VHR phosphatase, pNPP absorbance, at 13.3 µM, stronger effect = higher value
The whole screen tested about 290,000 compounds, of which about 1,500 (0.52%) were called active. This excerpt belongs to a sample that is enriched for actives.
Rule: 1.0 for inhibition not less than 20%, 0.0 for anything less.

Some solved cases for reference:
COc1ccc(NC(=O)Cn2c(-c3ccc(OC)cc3)cn(-c3ccc(C)cc3)c2=O)cc1    0.0
CC(=O)Nc1ccc(S(=O)(=O)N2CCC(C(=O)NC3CC3)CC2)cc1    0.0
CN(CC(=O)Nc1ccc(F)cc1)C(=O)c1ccc(-c2ccc(Cl)cc2)o1    0.0
CCn1nnnc1SCC(=O)Nc1ccc(N(C)C)cc1    1.0
Cc1ccc(NC(=O)CN(C)C(=O)COC(=O)C(C)(C)Oc2ccc(Cl)cc2)cc1    0.0

Kindly consider the entry below.
[Q] Hi, just wondering whether COc1ccc(S(=O)(=O)N2CCC(C(=O)N3CCc4ccccc4C3)CC2)cc1OC shows inhibition of 20% or higher.
[A] 0.0

---

molecular target: Dual specificity protein phosphatase 3 (Homo sapiens); assay: VHR1 phosphatase inhibitors, primary screen, biochemical, absorbance, uHTS (AID 1654); conditions: recombinant VHR phosphatase, pNPP absorbance, at 13.3 µM, stronger effect = higher value
In all, about 290,000 compounds went through this assay and about 1,500 (0.52%) were called active. For the sample, actives were picked, then their nearest neighbours and some compounds at random.
Each item that follows carries a reported inhibition.
Reply numerically in %, unit not repeated.

In the examples that follow, each entry is paired with its recorded inhibition.
Cc1c(C(=O)NCCCc2ccccc2)cccc1[N+](=O)[O-]    22.5
Cc1c(C(=O)O)nnn1-c1nonc1N    17.9

Summary for this compound, Cc1ccc(S(=O)(=O)NCC2CCC(C(=O)N3CCOCC3)CC2)cc1 (centres undefined) : inhibition is 52

Summary for this compound, COC1=C(N2CCOCC2)C(=O)c2ccccc2C1=O : inhibition is 57.3

Summary for this compound, CC(Sc1nnc(-c2ccccc2F)n1C1CC1)C(N)=O (centres undefined) : inhibition is 11.3

Summary for this compound, COc1ccc2[nH]c(C(=O)N/N=C/c3cc(OC)c(OC)c(OC)c3)cc2c1 : inhibition is 14.1

---

target: Dual specificity protein phosphatase 3 (Homo sapiens) (UniProt P51452); experiment: VHR1 phosphatase inhibitors, primary screen, biochemical, absorbance, uHTS (AID 1654); settings: recombinant VHR phosphatase, pNPP absorbance, at 13.3 µM, stronger effect = higher value
Out of some 290,000 compounds screened, about 1,500 (0.52%) were called active. The entries come from a sample that favours actives as a whole.
Endpoint: inhibition (%)
Reply numerically in %, unit not repeated.

In the examples that follow, each entry is paired with its recorded inhibition.
OC(CNCc1ccc2c(c1)OCO2)COc1ccccc1 (stereo not given)    0.8
CCc1ccc(/C=C2\SC(N3CCOCC3)=NC2=O)cc1    19.9
Cc1c(CC(=O)N2CCN(C(=O)C3COc4ccccc4O3)CC2)c(=O)oc2c(O)c(O)ccc12 (stereo not given)    9.7
Cc1ccc(C)c(S(=O)(=O)Nc2cc(C)on2)c1    16.3
CN(Cc1ccccc1)CC(O)COc1ccc(CNCc2cc3ccccc3s2)cc1 (stereo not given)    55.5

For CCOc1ccc(-c2noc(CCC(=O)NC3CCCC3)n2)cc1OC on Dual specificity protein phosphatase 3 (Homo sapiens) (UniProt P51452), measured inhibition was 27.7

For CCN1CCN(C2CCCCC2NS(=O)(=O)c2ccc(Cl)cc2)CC1 (stereo not given) on Dual specificity protein phosphatase 3 (Homo sapiens) (UniProt P51452), measured inhibition was 11.4

For O=C1COc2ccc(S(=O)(=O)Nc3ccc(OC(F)(F)F)cc3)cc2N1 on Dual specificity protein phosphatase 3 (Homo sapiens) (UniProt P51452), measured inhibition was -1.9

For COc1cc(Cl)ccc1OCc1cc(C(=O)N(C)CCc2c(C)n[nH]c2C)no1 on Dual specificity protein phosphatase 3 (Homo sapiens) (UniProt P51452), measured inhibition was 1.6

For O=C(C(NS(=O)(=O)c1cccc2nsnc12)c1ccccc1)N1CCN(c2ccccn2)CC1 (stereo not given) on Dual specificity protein phosphatase 3 (Homo sapiens) (UniProt P51452), measured inhibition was 52.7

Where do the numbers come from? From PubChem BioAssay AID1654.
